Value source: the supplement of paper PMC10567573

B1: EIF5 (parent)
chain: KQTIGNSCKACGYRGMLDTHHKLC

- Variants of: B1
- measurement.description: protein stability index of a GFP-peptide fusion (GPS, HEK-293T) (PSI 1-6); higher = more stable;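 further: lentivirally expressed fusions sorted by FACS into six bins by GFP to DsRed ratio, PSI derived from sequencing read proportions per bin multiplied by bin number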
- run.conditions: c terminus: a fixed tail appended
Lab note: anything with protein stability index at or over 3 counts as t; the rest go in f.

YQTIGNSCKACGYRGMLDTHHKLC [K1Y]; f
KQTIGNSCKATGYRGMLDTHHKLC [C11T]; f
KQTIGNSCKACGYRTMLDTHHKLC [G15T]; f
KQTIGNSCKACTYRGMLDTHHKLC [G12T]; f
KQMIGNSCKACGYRGMLDTHHKLC [T3M]; t

Exercise: Quick check: does KQTIGNNCKACGYRGMLDTHHKLC [S7N] have protein stability index greater than or equal to 3?
Solution: t

Exercise: And then KQTIGNSQKACGYRGMLDTHHKLC [C8Q] , what is it?
Solution: f

Exercise: KQTIGNSCKICGYRGMLDTHHKLC [A10I] , same question.
Solution: t

Exercise: Moving on to KQTIGNSCKACGYRGMLDTHHKIC [L23I]
Solution: f

Exercise: Next record, please: KQTIGNSCKACGYRVMLDTHHKLC [G15V]
Solution: f
